- Tested on: Wolbachia pipientis
- method-description: Anti-Wolbachia Cell-Based Screen
- Format: functional
- Set-up: scale not given: in the data most compounds retested in dose-response had high values
- condition-context: 5 µM
In all, about 48,000 compounds went through this assay and about 13,000 (27%) showed an effect of 50% or more. The list shows a part of the results.
assay-metric: Percent Effect (%)
Provide only the numeric value, understood in %.

Input line: Value lookup for Percent Effect; key = `O=C1N[C@H]2OCCC[C@H]2[C@H](c2ccc(C(=O)O)cc2)N1`
Output line: 126.1

Input line: Value lookup for Percent Effect; key = `O=C1N[C@H]2OCCC[C@H]2[C@H](c2ccccc2)N1`
Output line: 111.8

Input line: Value lookup for Percent Effect; key = `Cc1ccc(C#N)c(N2CCC(c3nccn3CCN(C)C)CC2)n1`
Output line: -3.51

Input line: Value lookup for Percent Effect; key = CN(C)CCn1ccnc1C1CCCN(c2nccc3ccccc23)C1 (stereo not drawn)
Output line: -1.132

Input line: Value lookup for Percent Effect; key = Cc1c(F)cccc1S(=O)(=O)N(C)CC(C)O (stereo not drawn)
Output line: 10.31

Input line: Value lookup for Percent Effect; key = Cl.Cl.OC(CN1CCN(Cc2ccc(F)c(F)c2)CC1)C1CC1 (stereo not drawn)
Output line: -1.298

Input line: Value lookup for Percent Effect; key = COc1ccc(C2CC(=O)Oc3cc(C)[nH]c(=O)c32)cc1 (stereo not drawn)
Output line: 5.191

Input line: Value lookup for Percent Effect; key = CN1CCC(N2CCC(c3ccccc3C(=O)O)C2)CC1 (stereo not drawn)
Output line: 13.56

Input line: Value lookup for Percent Effect; key = `Cc1nn(C)cc1-c1ccnc(N(C)Cc2cnn(C)c2)n1`
Output line: -26.11

Input line: Value lookup for Percent Effect; key = Cc1noc(CCCC(=O)NC(C)c2cn(-c3ccccc3)nn2)n1 (stereo not drawn)
Output line: -6.671

Input line: Value lookup for Percent Effect; key = CN(C)CCn1c(=O)oc2ccc(NC(=O)C3CCCO3)cc21 (stereo not drawn)
Output line: 1.023

Input line: Value lookup for Percent Effect; key = `CN(CCCc1cnn(C)c1)c1nccc(-c2cc(C(=O)O)ccn2)n1`
Output line: 108.4

Input line: Value lookup for Percent Effect; key = `COc1ccc([C@@H]2NC(=O)N[C@H]3OCCC[C@H]32)cc1`
Output line: 92.15

Input line: Value lookup for Percent Effect; key = COc1ccc(C2CC(=O)Nc3c2cnn3C2CCCC2)cc1 (stereo not drawn)
Output line: -0.6699

Input line: Value lookup for Percent Effect; key = `CN(Cc1cnn(C)c1)c1nccc(-c2cc(C(=O)O)ccn2)n1`
Output line: 109.1

Input line: Value lookup for Percent Effect; key = `CC(C)c1nc(/C=C/c2cnn(-c3ccc(Cl)cc3)c2)ncc1C(=O)O`
Output line: -7.437

Input line: Value lookup for Percent Effect; key = `O=C1CO[C@H](c2ccc(NS(=O)(=O)c3ccccc3)cc2)[C@@H](CO)N1`
Output line: -4.896

Input line: Value lookup for Percent Effect; key = `CC(C)N(Cc1cnn(C)c1)C(=O)c1ccnc(N(C)C)c1`
Output line: 14.77

Input line: Value lookup for Percent Effect; key = `O=C1N[C@H]2OCCC[C@H]2[C@H](c2ccccc2C(=O)O)N1`
Output line: 55.53

Input line: Value lookup for Percent Effect; key = `Cc1nc(N(C)CCCc2nccn2C)c2nc(C)oc2n1`
Output line: -2.669

Input line: Value lookup for Percent Effect; key = O=C(CN1CCCC(c2ccc(C(=O)O)cc2)C1)NC1CC1 (stereo not drawn)
Output line: -9.643

Input line: Value lookup for Percent Effect; key = `CN(C)CCn1c([C@@H]2CCCO2)cc2cccnc21.Cl`
Output line: 90.46

Input line: Value lookup for Percent Effect; key = `CN(CCCc1cnn(C)c1)C(=O)Nc1cccc(C#N)c1`
Output line: -5.075
